Source: patent US20130303535A1

Form field: inhibition at 12.5 µM (one value per entry).
ASSAY TARGET: TTX resistant Na channel of human SNS-expressing cell (SNS) (Homo sapiens)
Sequence (Q9Y5Y9 whole entry, looked up): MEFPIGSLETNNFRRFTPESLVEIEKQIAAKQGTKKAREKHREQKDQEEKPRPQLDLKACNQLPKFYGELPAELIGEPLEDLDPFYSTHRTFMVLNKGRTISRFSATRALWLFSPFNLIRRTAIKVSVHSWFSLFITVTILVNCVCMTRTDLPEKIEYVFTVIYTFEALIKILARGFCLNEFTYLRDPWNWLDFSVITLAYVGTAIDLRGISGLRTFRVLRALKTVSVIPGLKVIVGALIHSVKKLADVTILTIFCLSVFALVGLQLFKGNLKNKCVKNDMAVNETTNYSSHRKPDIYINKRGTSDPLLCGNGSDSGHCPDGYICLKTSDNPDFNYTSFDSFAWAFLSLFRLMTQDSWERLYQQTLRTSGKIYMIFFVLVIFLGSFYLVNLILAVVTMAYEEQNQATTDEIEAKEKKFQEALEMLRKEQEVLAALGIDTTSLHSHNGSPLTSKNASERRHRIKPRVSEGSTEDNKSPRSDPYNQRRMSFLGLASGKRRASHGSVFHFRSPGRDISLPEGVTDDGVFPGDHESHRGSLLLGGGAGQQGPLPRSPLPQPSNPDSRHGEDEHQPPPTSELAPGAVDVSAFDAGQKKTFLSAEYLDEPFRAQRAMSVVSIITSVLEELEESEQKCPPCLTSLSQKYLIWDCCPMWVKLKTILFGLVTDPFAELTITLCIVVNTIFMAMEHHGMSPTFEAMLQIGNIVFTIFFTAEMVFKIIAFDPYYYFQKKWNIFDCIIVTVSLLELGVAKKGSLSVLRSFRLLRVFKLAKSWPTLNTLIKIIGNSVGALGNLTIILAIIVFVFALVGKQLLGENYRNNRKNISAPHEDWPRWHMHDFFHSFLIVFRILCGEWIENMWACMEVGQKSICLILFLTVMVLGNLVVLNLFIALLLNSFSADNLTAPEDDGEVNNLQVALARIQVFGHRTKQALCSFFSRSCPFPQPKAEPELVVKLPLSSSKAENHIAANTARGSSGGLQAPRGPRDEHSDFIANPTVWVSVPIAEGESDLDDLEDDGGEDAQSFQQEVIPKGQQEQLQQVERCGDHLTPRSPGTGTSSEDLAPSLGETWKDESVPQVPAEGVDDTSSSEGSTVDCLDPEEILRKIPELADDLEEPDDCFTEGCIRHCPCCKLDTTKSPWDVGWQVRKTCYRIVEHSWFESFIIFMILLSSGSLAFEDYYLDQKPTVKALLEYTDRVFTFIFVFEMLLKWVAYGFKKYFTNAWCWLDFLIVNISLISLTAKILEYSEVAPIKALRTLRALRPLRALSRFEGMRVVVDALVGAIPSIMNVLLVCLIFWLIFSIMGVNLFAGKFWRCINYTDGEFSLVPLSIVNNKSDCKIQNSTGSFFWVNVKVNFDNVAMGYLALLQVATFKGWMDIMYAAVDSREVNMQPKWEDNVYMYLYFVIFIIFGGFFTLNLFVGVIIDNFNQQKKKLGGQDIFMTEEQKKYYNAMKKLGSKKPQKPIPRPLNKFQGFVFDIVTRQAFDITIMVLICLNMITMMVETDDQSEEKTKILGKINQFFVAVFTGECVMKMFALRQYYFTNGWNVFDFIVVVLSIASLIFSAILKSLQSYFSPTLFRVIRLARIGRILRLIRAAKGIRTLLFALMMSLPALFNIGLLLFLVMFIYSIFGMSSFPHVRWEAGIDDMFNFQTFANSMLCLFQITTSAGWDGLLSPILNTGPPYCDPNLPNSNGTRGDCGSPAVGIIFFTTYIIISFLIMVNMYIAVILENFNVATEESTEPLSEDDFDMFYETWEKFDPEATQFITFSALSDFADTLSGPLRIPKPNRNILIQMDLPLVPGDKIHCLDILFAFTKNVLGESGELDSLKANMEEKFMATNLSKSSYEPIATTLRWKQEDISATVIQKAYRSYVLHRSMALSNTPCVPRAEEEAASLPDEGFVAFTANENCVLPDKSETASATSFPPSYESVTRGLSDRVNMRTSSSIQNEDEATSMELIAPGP
ASSAY TEXT: cell-based
EXPERIMENTAL PARAMETERS: CHO-K1, compound concentration 12.5 μM; read-out: SNS inhibitory rate (%)
OUTCOME MEASURE: inhibition at 12.5 µM (%)

- STRUCTURE SMILES STRING: "CCOCCn1c(CN[C@H](C)C(N)=O)nc2ccc(Oc3ccccc3)cc21"
  ENDPOINT RESULT: 0.4
- STRUCTURE SMILES STRING: "CCOCCn1c(CN[C@@H](C)C(N)=O)nc2ccc(Oc3cccc(F)c3F)cc21"
  ENDPOINT RESULT: 71.2
- STRUCTURE SMILES STRING: "CCn1c(CN[C@@H](C)C(N)=O)nc2ccc(Oc3ccc(F)cc3)cc21"
  ENDPOINT RESULT: 96
- STRUCTURE SMILES STRING: "COCCCn1c(CN[C@@H](C)C(N)=O)nc2ccc(Oc3ccc(OC(F)(F)F)cc3)cc21"
  ENDPOINT RESULT: 93.9
- STRUCTURE SMILES STRING: "CCOCCn1c(CN[C@@H](C)C(N)=O)nc2ccc(-c3ccc(F)c(OC)c3)cc21"
  ENDPOINT RESULT: 27.1
- STRUCTURE SMILES STRING: "CC(C)(NCc1nc2ccc(Oc3ccccc3)cc2n1C[C@@H]1CCCO1)C(N)=O"
  ENDPOINT RESULT: 10.8
- STRUCTURE SMILES STRING: "CCOCCn1c(CNC(C)(C)C(N)=O)nc2ccc(-c3ccc(C)c(C)c3)cc21"
  ENDPOINT RESULT: 67.3
- STRUCTURE SMILES STRING: "C[C@H](NCc1nc2ccc(Oc3ccc(F)cc3)cc2n1C1CCNCC1)C(N)=O"
  ENDPOINT RESULT: 0
